These entries and their values trace back to ChEMBL document CHEMBL3638431.

Target: Orexin receptor type 2 (Homo sapiens, UniProt O43614)
Sequence (O43614 whole entry): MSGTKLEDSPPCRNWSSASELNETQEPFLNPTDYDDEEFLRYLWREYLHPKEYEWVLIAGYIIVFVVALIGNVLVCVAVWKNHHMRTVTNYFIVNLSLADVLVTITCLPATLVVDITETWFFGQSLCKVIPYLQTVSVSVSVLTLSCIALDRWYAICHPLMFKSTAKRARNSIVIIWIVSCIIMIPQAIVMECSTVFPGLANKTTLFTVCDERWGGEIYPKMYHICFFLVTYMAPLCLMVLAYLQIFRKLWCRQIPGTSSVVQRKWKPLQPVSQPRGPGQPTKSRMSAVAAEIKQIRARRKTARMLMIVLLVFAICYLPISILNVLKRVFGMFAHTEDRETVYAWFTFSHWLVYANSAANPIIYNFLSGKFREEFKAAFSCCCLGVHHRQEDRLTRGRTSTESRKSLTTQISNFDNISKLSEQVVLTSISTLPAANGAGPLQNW
value.type: Ki (nM)

> print(dat)
                                chem.smiles  reported
1  C[C@@H]1CC[C@@H](Oc2cc(C#N)ccn2)CN1C(=O)c1ccccc1-n1nccn1       1.6
2  C[C@@H]1CC[C@@H](Oc2cc(C#N)ccn2)CN1C(=O)c1ccc(C#N)cc1-n1nccn1      1360
3  Cc1nc(-c2ccccc2C(=O)N2C[C@H](Oc3cc(C#N)ccn3)CC[C@H]2C)no1       4.5
4  C[C@@H]1CC[C@@H](Oc2cc(C#N)ccn2)CN1C(=O)c1ccccc1-c1ncccn1       1.3
